Tested on: CD2F1 mice, L1210 leukemia ip, survival T/C
Assay: NCI In Vivo Anticancer Drug Screen. Data for tumor model L1210 Leukemia (intraperitoneal) in CD2F1 (CDF1) mice
Settings: endpoint: mean survival time; dose: 100.0 mg/kg/injection; schedule: Q01DX001 (ip); vehicle: saline; higher = longer survival
Inconclusive results and toxic doses are left out.
T/C by entry:
property_name: T/C

1. CC1(CC(=O)O)NC(=O)NC1=O (stereo not drawn) ... 102 % of control
2. CCCC1C(CC)C=NN1C (stereo not drawn) ... 102 % of control
3. NCCCCCC(=O)O ... 93 % of control
4. CC(=O)C(C)(c1ccccc1)N(Cc1ccccc1)C(=O)c1ccccc1 (stereo not drawn) ... 96 % of control
5. CCCN(CCC)S(=O)(=O)c1ccc(NC(=O)OCc2ccccc2)cc1 ... 103 % of control
6. O=C(/C=C/c1ccco1)c1ccc2ccccc2c1 ... 102 % of control
7. CC[C+](C)[B-][N+](C)(C)C ... 93 % of control
8. C=C[Si](C=C)(C=C)C=C ... 101 % of control
9. CN1C(=O)/C(=C/c2cccs2)SC1=S ... 95 % of control
10. Nc1c(Cl)cc(Cl)cc1C(=O)O ... 102 % of control
11. CCCCOc1c(OCCCC)c(=O)c1=O ... 108 % of control
12. O=C1CCCC2c3ccccc3NC12 (stereo not drawn) ... 98 % of control
13. CCN(CC)CCC(=O)c1ccc2ccc3ccccc3c2c1 ... 89 % of control

====

Test system: CD2F1 mice, L1210 leukemia ip, survival T/C
Test: NCI In Vivo Anticancer Drug Screen. Data for tumor model L1210 Leukemia (intraperitoneal) in CD2F1 (CDF1) mice
Settings: endpoint: mean survival time; dose: 400.0 mg/kg/injection; schedule: Q01DX009 (ip); vehicle: saline with Tween-80; higher = longer survival
Inconclusive results and toxic doses are left out.
property_name: T/C

1) Cc1c(Cl)cccc1NS(=O)(=O)c1ccccc1 ... 103 % of control
2) O=C(c1ccc(F)cc1)c1ccccc1Cl ... 97 % of control
3) O=C1c2ccccc2C2c3ccccc3CCN12 (stereo not drawn) ... 97 % of control
4) O=C(NC(=O)c1ccccc1)NS(=O)(=O)c1ccccc1 ... 98 % of control
5) O=S(O)C(=NC1CCCCC1)NC1CCCCC1 ... 105 % of control
6) CC(C)C1=CC2=CCC3C(C)(C(=O)O)CCCC3(C)C2CC1 (stereo not drawn) ... 97 % of control
7) COc1cccc(C(=O)c2ccccc2NC(C)=O)c1 ... 98 % of control
8) COc1ccc(OC)c(NC(=O)Oc2ccc(F)cc2Cl)c1 ... 102 % of control
9) CN(C)c1ccc(N=C(C#N)C(=O)c2ccccc2)cc1 ... 97 % of control
10) CCN(CC)CCCC(C)(NCc1ccccc1)[P+](=O)O (stereo not drawn) ... 94 % of control
11) C(=Nc1ccccc1)c1ccccc1C=Nc1ccccc1 ... 94 % of control
12) CC(=O)Nc1cccc(Cl)c1 ... 91 % of control
13) COC(=O)C1C=Cc2ccccc21 (stereo not drawn) ... 104 % of control
14) O=[N+]([O-])c1ccc2nc3c(nc2c1)-c1cccc2cccc-3c12 ... 98 % of control
15) Cc1ccc(S(=O)(=O)O/N=C2/CCC(C)(C)c3ccccc32)cc1 ... 94 % of control
16) COc1cccc(CCNC(=O)CC#N)c1 ... 101 % of control
17) CCCCn1c(=O)cc(C(=O)O)c2ccccc21 ... 89 % of control
18) CCOc1cc([N+](=O)[O-])c(OCC)cc1Cl ... 98 % of control
19) O=C(Nc1ccc2c3c(ccc(NC(=O)c4ccccc4)c13)C=C2)c1ccccc1 ... 89 % of control
20) O=Nc1c(O)sc2ccccc12 ... 94 % of control
21) O=S(=O)(OCC1CC2CCC1CC2)c1ccc(Br)cc1 (stereo not drawn) ... 102 % of control
22) O=C(Nc1ccc(Br)cc1)c1ccccc1 ... 91 % of control
23) C=CCC(Cl)(C(=O)OC)C(=O)OC ... 106 % of control
24) CC(=O)SCCNCCOCCC#N ... 95 % of control
25) Brc1ccccc1C=C1c2ccccc2-c2ccccc21 ... 106 % of control
26) Cc1ccc2nc(-c3cccc([N+](=O)[O-])c3)oc(=O)c2c1 ... 94 % of control
27) OC(Cc1ccccn1)C(Cl)(Cl)Cl (stereo not drawn) ... 98 % of control
28) O=C(/C(=N/N=C\c1ccc([N+](=O)[O-])cc1)c1ccccc1)c1ccccc1 ... 95 % of control
29) Cc1ccc2c(c1)Sc1ccc3ccccc3c1N2 ... 97 % of control
30) COc1ccc(C(O)(c2ccc(OC)cc2)C(c2ccccc2)c2ccccc2)cc1 ... 97 % of control
31) CCC(CC)CN1CCSC1=S ... 96 % of control
32) CC[N+]1(C)CCC(CN2c3ccccc3Sc3ccccc32)C1 (stereo not drawn) ... 110 % of control
33) CCOC(=O)C(O)(C(=O)OCC)C(C)C ... 94 % of control
34) CC(=O)N/C(=C\c1ccccc1)C(N)=O ... 100 % of control
35) O=C(NC(CO)C(=O)OCc1ccccc1)OCc1ccccc1 (stereo not drawn) ... 91 % of control
36) Nc1ncnc2c1ncn2CCCN1C(=O)c2ccccc2C1=O ... 101 % of control
37) COc1ccc(C(Sc2ccccc2)c2ccc(OC)cc2)cc1 ... 86 % of control
38) COc1ccc(C2=NNc3n[nH]c(=S)n3N2)cc1OC ... 104 % of control
39) CCOCc1ccc(C(=O)O)cc1 ... 101 % of control
40) CCOC(=O)C(C(=O)c1ccccc1)C(c1ccccc1)C(C(=O)OCC)C(=O)c1ccccc1 (stereo not drawn) ... 100 % of control
41) Cc1cc(C)c(O)c(C(=O)CC2CC(=O)NC(=O)C2)c1 ... 101 % of control
42) Cc1nc2ccc(Cl)cc2c(=O)o1 ... 96 % of control
43) C=CCN(CC=C)CCNc1cc(C)nc(Nc2nc3ccc(Cl)cc3[nH]2)n1 ... 100 % of control
44) C=C(C)COc1cc(C=NCCCC)c(C)cc1C ... 96 % of control
45) COC(=O)CCC1CCC(=O)O1 (stereo not drawn) ... 94 % of control
46) CN(C)c1ccc(/C=N/NC(=O)CC2CCCCC2)cc1 ... 93 % of control
47) COc1cc(NC(=O)CC(C)=O)cc(OC)c1OC ... 101 % of control
48) NC(=O)/C=C/C1=NCCC1 ... 103 % of control

====

Tested on: CD2F1 mice, L1210 leukemia ip, survival T/C
Assay: NCI In Vivo Anticancer Drug Screen. Data for tumor model L1210 Leukemia (intraperitoneal) in CD2F1 (CDF1) mice
Conditions: endpoint: mean survival time; dose: 100.0 mg/kg/injection; schedule: Q01DX001 (ip); vehicle: Klucel (hydroxypropylcellulose) (HPC); higher = longer survival
Inconclusive results and toxic doses are left out.
property_name: T/C

1) CCOC(=S)SSC(=S)OCC ... 92 % of control
2) Cc1ccc(S(=O)(=O)Nc2ccccc2SSc2ccccc2NS(=O)(=O)c2ccc(C)cc2)cc1 ... 96 % of control
3) CC(=O)Nc1cccc(/C=C/c2ccc([N+](=O)[O-])cc2)c1 ... 100 % of control

====

T/C by entry:
Test system: CD2F1 mice, L1210 leukemia ip, survival T/C
Experiment: NCI In Vivo Anticancer Drug Screen. Data for tumor model L1210 Leukemia (intraperitoneal) in CD2F1 (CDF1) mice
Conditions: endpoint: mean survival time; dose: 50.0 mg/kg/injection; schedule: Q01DX009 (ip); vehicle: saline with Tween-80; higher = longer survival
Inconclusive results and toxic doses are left out.
property_name: T/C

1) CC(O)CNC1CCCCC1 (centres undefined) ... 97 % of control
2) CC(C)OC(=O)N1C(=O)C2C3CCC(O3)C2C1=O (centres undefined) ... 97 % of control
3) COc1cc(OC)c(NC(=O)Nc2ccc(CCO)cc2)cc1Cl ... 93 % of control
4) CCOc1ccc(-n2c(-c3ccc(Br)cc3)csc2=NC(=O)c2ccccc2F)cc1 ... 88 % of control
5) O=C(O)c1cc(F)c(F)c(F)c1F ... 103 % of control
6) COCC/C=C/CCl ... 92 % of control
7) CC1=NN(c2cccc(S(=O)(=O)O)c2)C(=O)C1Cl (centres undefined) ... 98 % of control
8) CCCCCCCCCCCCCCCCCC[N+]1(Cc2ccccc2)CCOCC1 ... 115 % of control
9) CCOC(=O)c1c(OC)cc2n(c1=O)Cc1cc3ccccc3nc1-2 ... 98 % of control
10) CN(C)c1ccc(-c2c3cc(O)c(=O)cc-3oc3cc(O)c(O)cc23)cc1 ... 92 % of control
11) CCCCCCCCCCCCCCCC(=O)NCCOC(C)=O ... 89 % of control
12) CCN(CC)CCC(=O)c1ccccc1 ... 101 % of control
13) CC(Cc1ccccc1)NC(N)=O (centres undefined) ... 92 % of control
14) Cc1ccc(S(=O)(=O)C2C=CC=CC=C2)cc1 ... 98 % of control
15) COc1c(O)ccc2c1CCCCC2=O ... 100 % of control
16) C1=CC(=C(C2CCC(Nc3ccccc3)CC2)C2CCC(Nc3ccccc3)CC2)C=CC1=Nc1ccccc1 (centres undefined) ... 103 % of control
17) CCOC(=O)C1(C#N)C(=O)CSC1=Nc1ccccc1Cl (centres undefined) ... 91 % of control
18) O=C(CC1(O)C(=O)Nc2ccccc21)c1c[nH]c2ccccc12 (centres undefined) ... 95 % of control
19) CO[C@H]1/C=C/O[C@@]2(C)Oc3c(C)c(O)c4c(O)c(c(/C=N/N5C(C)CN(Cc6ccccc6)CC5C)c(O)c4c3C2=O)NC(=O)/C(C)=C\C=C\[C@H](C)[C@H](O)[C@@H](C)[C@@H](O)[C@@H](C)[C@H](OC(C)=O)[C@@H]1C (some centres undefined) ... 96 % of control
